target: KRAS(G12C) (Homo sapiens, UniProt P01116, G12C); test: KRAS(G12C)/SOS1 homogeneous time-resolved fluorescence (HTRF) assay; conditions: absence of GTP, 4° C. for 3 hr, read-out: KRAS (G12C) binding
Sequence (P01116 1-188 isoform P01116-2 G12C): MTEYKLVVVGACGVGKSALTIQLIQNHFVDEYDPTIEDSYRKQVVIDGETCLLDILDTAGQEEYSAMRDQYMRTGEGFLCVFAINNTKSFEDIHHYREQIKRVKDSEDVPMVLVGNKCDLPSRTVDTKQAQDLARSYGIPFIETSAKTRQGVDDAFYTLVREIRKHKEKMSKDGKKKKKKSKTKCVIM
pIC50: −log10 of the molar value.
Provide the recorded pIC50 for the entries that follow.

# query: pIC50 of entry C=CC(=O)N1CCN(c2nc(OC[C@@H]3CC[C@H](COC(=O)NCc4ccc(-n5c(O)nnc5-c5cc(CC)c(O)cc5O)cc4)N3C)nc3c2CCN(c2cccc4cccc(Cl)c24)C3)C[C@@H]1CC#N
6.00 to 7.00

# query: pIC50 of entry C=CC(=O)N1CCN(c2nc(OC[C@@H]3C[C@H](N4CCC(C(=O)N5CCN(Cc6ccc(-n7c(C(=O)NCCN8CCN(S(C)(=O)=O)CC8)nnc7-c7cc(C(C)C)c(O)cc7O)cc6)CC5)CC4)CN3C)nc3c2CCN(c2cccc4cccc(Cl)c24)C3)C[C@@H]1CC#N
> 7.00

# query: pIC50 of entry C=CC(=O)N1CCN(c2nc(OCC3CN(C(=O)C4CCN(Cc5ccc(-n6c(C(=O)NCC(F)(F)F)nnc6-c6cc(C)c(O)cc6O)cc5)CC4)C3)nc3c2CCN(c2cccc4cccc(Cl)c24)C3)C[C@@H]1CC#N
6.00 to 7.00

# query: pIC50 of entry C=CC(=O)N1CCN(c2nc(NCCC(=O)N3CCC(CN4CCN(Cc5ccc(-n6c(O)nnc6-c6cc(C(C)C)c(O)cc6O)cc5)CC4)CC3)nc3c2CCN(c2cc(O)cc4ccccc24)C3)CC1
< 6.00

====

biological target: KRAS(G12C) (Homo sapiens, UniProt P01116, G12C); assay: KRAS(G12C)/SOS1 homogeneous time-resolved fluorescence (HTRF) assay; settings: absence of GTP, 4° C. for 3 hr, read-out: KRAS (G12C) binding
pIC50: −log10 of the molar value.
Provide the recorded pIC50 for the entries that follow.

# query: pIC50 of entry C=CC(=O)N1CCN(c2nc(OC[C@@H]3CC[C@H](C(=O)N4CCN(Cc5ccc(-n6c(O)nnc6-c6cc(C(C)C)c(O)cc6O)cc5)CC4)N3C)nc3c2CCN(c2cccc4cccc(Cl)c24)C3)C[C@@H]1CC#N
6.00 to 7.00

# query: pIC50 of entry C=CC(=O)N1CCN(c2nc(OC[C@@H]3C[C@H](C(=O)N4CCN(Cc5ccc(-n6c(C(=O)NCC(F)(F)F)nnc6-c6cc(C)c(O)cc6O)cc5)CC4)CN3C)nc3c2CCN(c2cccc4cccc(Cl)c24)C3)C[C@@H]1CC#N
> 7.00

# query: pIC50 of entry C=CC(=O)N1CCN(c2nc(OC[C@@H]3CN(C(=O)C4CCN(Cc5ccc(-n6c(C(N)=O)nnc6-c6cc(C(C)C)c(O)cc6O)cc5)CC4)CCN3C)nc3c2CCN(c2cccc4cccc(Cl)c24)C3)C[C@@H]1CC#N
< 6.00

# query: pIC50 of entry C=CC(=O)N1CCN(c2nc(OC[C@@H]3C[C@H](C(=O)NCCc4ccc(CN5CCC(Cc6ccc(-n7c(C(=O)NCC(F)(F)F)nnc7-c7cc(C(C)C)c(O)cc7O)cc6)CC5)cc4)CN3C)nc3c2CCN(c2cccc4cccc(Cl)c24)C3)C[C@@H]1CC#N
> 7.00

# query: pIC50 of entry C=CC(=O)N1CCN(c2nc(OC[C@@H]3C[C@H](N4CCC(C(=O)N5CCN(Cc6ccc(-n7c(C(=O)NCC(F)(F)C(F)(F)F)nnc7-c7cc(C(C)C)c(O)cc7O)cc6)CC5)CC4)CN3C)nc3c2CCN(c2cccc4cccc(Cl)c24)C3)C[C@@H]1CC#N
> 7.00

# query: pIC50 of entry C=CC(=O)N1CCN(c2nc(OCC3CCC(CN4CCC(Cc5ccc(-n6c(C(=O)NCC(F)(F)F)nnc6-c6cc(C(C)C)c(O)cc6O)cc5)CC4)N3)nc3c2CCN(c2cccc4cccc(Cl)c24)C3)C[C@@H]1CC#N (some centres unmarked)
< 6.00

# query: pIC50 of entry C=CC(=O)N1CCN(c2nc(OCC3(CN4CCN(Cc5ccc(-n6c(O)nnc6-c6cc(C(C)C)c(O)cc6O)cc5)CC4)CC3)nc3c2CCN(c2cccc4cccc(Cl)c24)C3)C[C@@H]1CC#N
> 7.00

# query: pIC50 of entry C=CC(=O)N1CCN(c2nc(OC[C@@H]3CC[C@H](CN4CCN(C(=O)C5CCN(Cc6ccc(-n7c(C(=O)NCC)nnc7-c7cc(CC)c(O)cc7O)cc6)CC5)CC4)N3C)nc3c2CCN(c2cccc4cccc(Cl)c24)C3)C[C@@H]1CC#N
> 7.00
